pIC50: −log10 of the molar value.
For Human CARM1 (PRMT4) (Homo sapiens (Human)), measured pIC50 is reported for the entries below.

Recorded results for 3 compounds are shown here.
CNC[C@@H](O)COc1ccc(Cl)c(-c2nc(N[C@H]3CC[C@@H](OC)C3)c(C)c(-c3c(C)noc3C)n2)c1    > 7.00
CNCC(O)COc1cccc(-c2nc(-c3c(C)noc3C)c(C)c(N3CC(NC(=O)N(C)C)C3)n2)c1 (stereo not shown)    > 7.00
C=C(C)c1nc(-c2cccc(OCC(O)CNC)c2)cc(N(C)C2CCOCC2)n1 (stereo not shown)    > 7.00

Exercise: Missing value: pIC50, Human CARM1 (PRMT4) (Homo sapiens (Human)), entry CCOC(=O)N1CC[C@@H](Nc2nc(-c3cc(OC[C@H](O)CNC)ccc3Cl)nc(-c3c(C)noc3C)c2Cl)C1 . Fill in?
Key: > 7.00

Exercise: # value lookup — system Human CARM1 (PRMT4) (Homo sapiens (Human)), readout pIC50, item CNCC(O)COc1cccc(-c2nc(N[C@H]3C[C@@H](O)C3)cc(-c3c(C)noc3C)n2)c1 (stereo partly shown)
Key: > 7.00

Exercise: Which pIC50 is reported with Human CARM1 (PRMT4) (Homo sapiens (Human)) for this entry: CNC[C@@H](O)COc1ccc(F)c(-c2nc(-c3c(C)noc3C)cc(N3Cc4cnn(C)c4C3)n2)c1 ?
Key: > 7.00

Exercise: Please state recorded pIC50 (tested on Human CARM1 (PRMT4) (Homo sapiens (Human))) of CNC[C@@H](O)COc1ccc(Cl)c(-c2nc(-c3c(C)noc3C)c(C)c(N3Cc4cnn(C5CC5)c4C3)n2)c1
Sequence (Q86X55 other isoform, or with tags, fused parts or gaps isoform Q86X55-1): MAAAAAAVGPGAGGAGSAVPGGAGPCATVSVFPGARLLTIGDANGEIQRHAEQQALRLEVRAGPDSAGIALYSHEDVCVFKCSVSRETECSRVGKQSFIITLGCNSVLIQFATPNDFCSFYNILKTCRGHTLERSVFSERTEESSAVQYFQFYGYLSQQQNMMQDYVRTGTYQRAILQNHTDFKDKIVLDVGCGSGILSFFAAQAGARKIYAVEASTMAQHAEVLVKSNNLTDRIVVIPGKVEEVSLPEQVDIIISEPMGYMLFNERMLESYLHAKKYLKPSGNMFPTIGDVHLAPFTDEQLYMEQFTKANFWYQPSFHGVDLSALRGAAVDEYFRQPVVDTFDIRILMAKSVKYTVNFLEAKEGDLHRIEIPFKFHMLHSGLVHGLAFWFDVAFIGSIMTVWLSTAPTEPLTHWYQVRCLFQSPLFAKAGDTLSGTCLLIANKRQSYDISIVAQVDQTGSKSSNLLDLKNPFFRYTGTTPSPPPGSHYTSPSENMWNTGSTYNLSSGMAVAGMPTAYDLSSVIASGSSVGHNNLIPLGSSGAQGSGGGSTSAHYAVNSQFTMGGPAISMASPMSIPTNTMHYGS
Key: > 7.00
